molecular target: PI3Kbeta (Homo sapiens, UniProt P42338); assay: Biochemical PI3Kbeta assay (neomycin SPA, lipid phosphorylation); conditions: human recombinant GST-PI3K
Sequence (P42338 whole entry): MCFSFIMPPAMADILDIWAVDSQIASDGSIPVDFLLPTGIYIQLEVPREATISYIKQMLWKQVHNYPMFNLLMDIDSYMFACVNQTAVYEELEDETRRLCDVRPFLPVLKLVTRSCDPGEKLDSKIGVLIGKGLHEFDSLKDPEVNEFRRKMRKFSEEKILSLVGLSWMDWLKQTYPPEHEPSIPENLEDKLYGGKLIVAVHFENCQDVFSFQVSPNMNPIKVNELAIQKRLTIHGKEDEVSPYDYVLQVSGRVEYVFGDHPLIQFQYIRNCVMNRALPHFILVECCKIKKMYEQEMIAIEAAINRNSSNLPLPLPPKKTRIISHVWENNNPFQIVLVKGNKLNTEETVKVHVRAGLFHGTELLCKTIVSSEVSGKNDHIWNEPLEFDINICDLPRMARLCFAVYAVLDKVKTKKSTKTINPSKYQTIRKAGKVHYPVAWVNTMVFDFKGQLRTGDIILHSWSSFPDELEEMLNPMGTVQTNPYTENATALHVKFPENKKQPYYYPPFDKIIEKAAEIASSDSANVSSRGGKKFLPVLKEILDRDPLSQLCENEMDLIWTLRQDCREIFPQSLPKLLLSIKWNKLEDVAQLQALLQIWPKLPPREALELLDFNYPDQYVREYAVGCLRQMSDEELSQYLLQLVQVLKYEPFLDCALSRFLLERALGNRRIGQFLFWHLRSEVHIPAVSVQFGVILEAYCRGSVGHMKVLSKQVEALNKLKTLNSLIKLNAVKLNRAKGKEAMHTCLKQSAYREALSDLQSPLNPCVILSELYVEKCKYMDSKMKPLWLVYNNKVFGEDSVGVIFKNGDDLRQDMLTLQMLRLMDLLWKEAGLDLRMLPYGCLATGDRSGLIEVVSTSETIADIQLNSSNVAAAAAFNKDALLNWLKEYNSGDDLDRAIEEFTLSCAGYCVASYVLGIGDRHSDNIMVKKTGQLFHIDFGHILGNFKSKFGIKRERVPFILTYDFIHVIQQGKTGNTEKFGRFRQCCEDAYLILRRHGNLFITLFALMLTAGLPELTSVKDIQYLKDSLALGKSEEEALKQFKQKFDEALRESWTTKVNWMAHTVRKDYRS
Sequence (P27986 whole entry partner): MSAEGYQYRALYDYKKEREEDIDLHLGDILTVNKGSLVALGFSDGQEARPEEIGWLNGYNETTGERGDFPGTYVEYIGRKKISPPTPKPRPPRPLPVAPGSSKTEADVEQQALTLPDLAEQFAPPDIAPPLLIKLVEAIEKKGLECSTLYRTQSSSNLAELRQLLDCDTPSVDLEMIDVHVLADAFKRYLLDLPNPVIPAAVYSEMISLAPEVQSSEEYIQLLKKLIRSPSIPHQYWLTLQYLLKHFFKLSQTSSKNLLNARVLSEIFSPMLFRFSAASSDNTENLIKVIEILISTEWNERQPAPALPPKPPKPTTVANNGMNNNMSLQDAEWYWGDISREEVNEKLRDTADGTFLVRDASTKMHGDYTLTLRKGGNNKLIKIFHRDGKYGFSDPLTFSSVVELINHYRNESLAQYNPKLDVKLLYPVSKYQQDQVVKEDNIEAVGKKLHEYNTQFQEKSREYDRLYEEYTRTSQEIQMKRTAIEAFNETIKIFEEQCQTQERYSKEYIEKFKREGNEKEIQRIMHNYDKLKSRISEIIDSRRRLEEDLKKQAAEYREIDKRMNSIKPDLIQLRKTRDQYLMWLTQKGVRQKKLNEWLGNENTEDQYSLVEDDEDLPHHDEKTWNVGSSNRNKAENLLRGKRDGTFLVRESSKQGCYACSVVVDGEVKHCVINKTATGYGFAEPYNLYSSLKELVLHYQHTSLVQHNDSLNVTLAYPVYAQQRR
pIC50: −log10 of the molar value.
// reported pIC50 per item

Below: 3 compounds and their reported pIC50.
Write down pIC50 measured for item Cn1cc(-c2cc(-c3cnc4[nH]ccc4c3)ccn2)n(-c2ccc(C(C)(C)C#N)cc2)c1=O
5.00 to 7.00

Report measured pIC50; entry is Cn1cc(-c2cc(-c3cnc4[nH]ccc4c3)ccn2)n(-c2ccccc2OC(F)(F)F)c1=O
< 5.00

Could you please provide reported pIC50 for Cn1cc(-c2cc(-c3cnc4nccnc4c3)ccn2)n(-c2ccc(C(C)(C)C#N)cc2)c1=O ? Thanks!
5.00 to 7.00

---
Using known records, supply pIC50 for Cn1cc(-c2cc(-c3cnc4[nH]cc(C(F)(F)F)c4c3)ccn2)n(-c2ccc(C(C)(C)C#N)cc2)c1=O
5.00 to 7.00

----------
Entries and their measured Kd follow.
biological target: recombinant PI3Kalpha (shortened form of the catalytic subunit) (Homo sapiens, UniProt P42336); assay: BIACORE PI3K binding assay (SPR); conditions: 25° C.
Sequence (P42336 151-1068 limits assumed): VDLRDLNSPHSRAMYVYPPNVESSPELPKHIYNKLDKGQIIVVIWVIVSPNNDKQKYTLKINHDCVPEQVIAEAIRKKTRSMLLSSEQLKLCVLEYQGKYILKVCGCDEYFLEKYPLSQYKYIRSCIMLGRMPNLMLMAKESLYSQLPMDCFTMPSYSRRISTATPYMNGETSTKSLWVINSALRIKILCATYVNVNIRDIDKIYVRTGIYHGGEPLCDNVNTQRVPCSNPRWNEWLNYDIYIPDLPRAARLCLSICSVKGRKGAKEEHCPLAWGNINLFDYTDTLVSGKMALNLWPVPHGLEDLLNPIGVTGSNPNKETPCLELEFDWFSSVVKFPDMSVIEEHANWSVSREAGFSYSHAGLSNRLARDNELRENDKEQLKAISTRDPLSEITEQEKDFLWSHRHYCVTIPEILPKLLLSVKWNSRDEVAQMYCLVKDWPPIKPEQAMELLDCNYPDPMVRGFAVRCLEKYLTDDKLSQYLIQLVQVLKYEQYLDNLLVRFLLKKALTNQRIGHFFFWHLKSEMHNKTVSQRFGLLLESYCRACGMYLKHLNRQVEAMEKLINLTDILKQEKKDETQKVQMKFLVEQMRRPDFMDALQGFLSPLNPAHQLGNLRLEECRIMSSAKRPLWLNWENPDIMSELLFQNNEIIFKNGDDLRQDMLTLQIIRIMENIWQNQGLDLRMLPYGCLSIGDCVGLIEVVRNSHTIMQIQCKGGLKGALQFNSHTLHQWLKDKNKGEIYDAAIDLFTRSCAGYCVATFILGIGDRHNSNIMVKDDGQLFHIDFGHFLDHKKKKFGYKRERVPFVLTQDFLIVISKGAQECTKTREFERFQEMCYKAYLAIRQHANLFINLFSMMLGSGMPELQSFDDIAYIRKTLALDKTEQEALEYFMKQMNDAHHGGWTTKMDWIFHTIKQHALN

Previously resolved entries follow.
Look up and report measured Kd for this entry: Cn1cc(-c2cc(-c3cnc4[nH]ncc4c3)ccn2)n(-c2ccc(C(C)(C)C#N)cc2)c1=O [Example A41]
0.1 to 100 nM

Consider the molecule Cn1cc(-c2cc(-c3cnc4[nH]ccc4c3)ccn2)n(-c2ccc(CC#N)cc2)c1=O [Example A32] and give its recorded Kd.
0.1 to 100 nM

Give recorded Kd. Cn1cc(-c2cc(-c3cnc4ccccc4c3)ccn2)n(-c2ccc(C(C)(C)C#N)cc2)c1=O [Example A1]
100 to 10000 nM

Item Cn1cc(-c2cc(-c3cnc(N)c(C(F)(F)F)c3)ccn2)n(-c2ccc(C(C)(C)C#N)cc2)c1=O [Example A40] : provide Kd
0.1 to 100 nM

Return value of Kd for input Cn1cc(-c2cc(-c3ccc(N)nc3)ccn2)n(-c2ccc(C(C)(C)C#N)cc2)c1=O [Example A8] , no commentary.
0.1 to 100 nM

Give Kd for Cn1cc(-c2cc(-c3ccc(N)c(C(F)(F)F)c3)ccn2)n(-c2ccc(C(C)(C)C#N)cc2)c1=O [Example A93]
0.1 to 100 nM

Further cases:
Tell me Kd reported for O=c1[nH]cc(-c2cc(-c3cnc4ccccc4c3)ccn2)n1-c1ccc(N2CCNCC2)c(C(F)(F)F)c1 [Example A5]
100 to 10000 nM

Note down Kd recorded for Cn1cc(-c2cc(-c3ccc4[nH]ccc4c3)ccn2)n(-c2ccc(N3CCNCC3)c(C(F)(F)F)c2)c1=O [Example A57]
100 to 10000 nM

Tell me measured Kd for COc1cccc(-n2c(-c3cc(-c4cnc5[nH]ccc5c4)ccn3)cn(C)c2=O)c1 [Example A73] please.
0.1 to 100 nM

----------
target: recombinant PI3Kalpha (shortened form of the catalytic subunit) (Homo sapiens, UniProt P42336); assay: BIACORE PI3K binding assay (SPR); conditions: 25° C.
pKd: −log10 of the molar value.
pKd reference

Return value of pKd for input Cn1cc(-c2cc(-c3cnc4[nH]ncc4c3)ccn2)n(-c2cccc(C#N)c2)c1=O , no commentary.
7.00 to 10.00

Fill in pKd for record Cn1cc(-c2cc(-c3ccc4[nH]ccc4c3)ccn2)n(-c2ccc(C(C)(C)C#N)cc2)c1=O
5.00 to 7.00

Note pKd for the molecule shown: Cn1cc(-c2cc(-c3cnc4[nH]ccc4c3)ccn2)n(-c2cccc(C#N)c2)c1=O
5.00 to 7.00

Others:
State, in one line, measured pKd of COc1cc(-n2c(-c3cc(-c4cnc5[nH]ccc5c4)ccn3)cn(C)c2=O)ccc1Cl
5.00 to 7.00

Read the entry Cn1cc(-c2cc(-c3ccc4[nH]ncc4c3)ccn2)n(-c2ccc(C(C)(C)C#N)cc2)c1=O and write its reported pKd.
7.00 to 10.00

// Input: CC(=O)N1CCN(c2ccc(-n3c(-c4cc(-c5ccc6[nH]ccc6c5)ccn4)cn(C)c3=O)cc2C(F)(F)F)CC1 . Output its pKd only.
5.00 to 7.00

Provide one value: measured pKd of Cc1nc2cc(-c3ccnc(-c4cn(C)c(=O)n4-c4ccc(C(C)(C)C#N)cc4)c3)cnc2[nH]1
7.00 to 10.00

Specify measured pKd for Cc1cc2cc(-c3ccnc(-c4cn(C)c(=O)n4-c4ccc(C(C)(C)C#N)cc4)c3)cnc2[nH]1 .
7.00 to 10.00

----------
molecular target: PI3Kbeta (Homo sapiens); assay: Biochemical PI3Kbeta assay (neomycin SPA, lipid phosphorylation); settings: human recombinant GST-PI3K
pIC50: −log10 of the molar value.
Consider the following molecules and their measured pIC50 readings.

# count of solved cases: 5
Report measured pIC50; entry is Cn1cc(-c2cc(-c3cnc(N)c(C#N)c3)ccn2)n(-c2ccc(C(C)(C)C#N)cc2)c1=O [Example A37]
5.00 to 7.00

Return pIC50 (reported value) for this molecule: Cn1cc(-c2cc(-c3ccnc4[nH]ccc34)ccn2)n(-c2ccc(C(C)(C)C#N)cc2)c1=O [Example A23]
< 5.00

Check the records and state pIC50 for Cn1cc(-c2cc(-c3ccsc3)ccn2)n(-c2ccc(C(C)(C)C#N)cc2)c1=O [Example A26]
< 5.00

Give the measured pIC50 for N#CCc1ccc(-n2c(-c3cc(-c4cnc5[nH]ccc5c4)ccn3)c[nH]c2=O)cc1 [Example A31]
5.00 to 7.00

Identify the reported pIC50 for the following entry. COc1ccc(-c2ccnc(-c3cn(C)c(=O)n3-c3ccc(C(C)(C)C#N)cc3)c2)cn1 [Example A9]
5.00 to 7.00

Next:
Let me know recorded pIC50 for Cn1cc(-c2cc(-c3cnc4[nH]ccc4c3)ccn2)n(-c2ccc(N3CCNCC3)c(C(F)(F)F)c2)c1=O [Example A25] , thanks.
7.00 to 10.00

----------
biological target: DNA-PK protein complex (Homo sapiens); assay: Biochemical DNA-PK assay (FlashPlate)
measurement_name: IC50

Would you please give the reported IC50 of Cn1cc(-c2cc(-c3cnc4[nH]ccc4c3)ccn2)n(-c2ccc(C(C)(C)CN)cc2)c1=O [Example A35] with DNA-PK protein complex (Homo sapiens)?
0.1 to 100 nM

Given Cn1cc(-c2cc(-c3cnc(N)c(C(F)(F)F)c3)ccn2)n(-c2ccc(C(C)(C)C#N)cc2)c1=O [Example A40] , report its IC50 on DNA-PK protein complex (Homo sapiens).
0.1 to 100 nM

Supply IC50 measured with DNA-PK protein complex (Homo sapiens) for Cn1cc(-c2cc(-c3cnc4c(ccn4C)c3)ccn2)n(-c2ccc(C(C)(C)C#N)cc2)c1=O [Example A54] .
0.1 to 100 nM

Attention now shifts to the item below.
Would you please give the reported IC50 of Cc1nc2cc(-c3ccnc(-c4cn(C)c(=O)n4-c4ccc(C(C)(C)C#N)cc4)c3)cnc2[nH]1 [Example A7] with DNA-PK protein complex (Homo sapiens)?
100 to 10000 nM

----------
measurement_name: melting point (°C)
Lab book: enter the figure in °C, no units written.

Examples from the recorded data:
Name the recorded melting point of the item COc1cc(-c2ccnc(-c3cn(C)c(=O)n3-c3ccc(C(C)(C)C#N)cc3)c2)ccn1 [Example A6] in your answer.
138

Give recorded melting point. Cn1cc(-c2cc(-c3cnc4ccccc4c3)ccn2)n(-c2ccc(C(C)(C)C(N)=O)cc2)c1=O [Example A21]
259

Given Cn1cc(-c2cc(-c3cnc4c(c3)CCC(=O)N4)ccn2)n(-c2ccc(C(C)(C)C#N)cc2)c1=O [Example A45] , respond with its melting point.
284

Return melting point (reported value) for this compound: Cn1cc(-c2cc(-c3cnc4[nH]ccc4c3)ccn2)n(-c2ccc(C(C)(C)C#N)cc2)c1=O [Example A12]
248

Return melting point (reported value) for this compound: Cn1cc(-c2cc(-c3cnc4[nH]ccc4c3)ccn2)n(-c2ccc(C(C)(C)C(N)=O)cc2)c1=O [Example A34]
299

Would you kindly look at the next entry?
Provide one value: measured melting point of Cn1cc(-c2cc(-c3cnc4[nH]ccc4c3)ccn2)n(-c2ccc(CC#N)cc2)c1=O [Example A32]
252

----------
The reader will find reported melting point values listed item by item below.
Output spec: scalar in °C, unitless text.

Recorded results for 5 compounds are shown here.
Find the measured melting point of Cn1cc(-c2cc(-c3cnc4c(c3)CC(=O)N4)ccn2)n(-c2ccc(C(C)(C)C#N)cc2)c1=O and report it.
263

Give recorded melting point. Cn1cc(-c2cc(-c3cnc4[nH]ccc4c3)ccn2)n(-c2ccc(C(C)(C)CN)cc2)c1=O
91

Supply measured melting point of Cn1cc(-c2cc(-c3ccsc3)ccn2)n(-c2ccc(C(C)(C)C#N)cc2)c1=O in your reply.
209

Indicate the recorded melting point value for this compound: CC(C)(C#N)c1ccc(-n2c(-c3cc(-c4cnc5ccccc5c4)ccn3)c[nH]c2=O)cc1
271

Quote melting point reported for Cn1cc(-c2cc(-c3cnc4ccccc4c3)ccn2)n(-c2ccc(C(C)(C)CN)cc2)c1=O please.
132

Here is the next item to consider.
Look up melting point of COc1ccc(-c2ccnc(-c3cn(C)c(=O)n3-c3ccc(C(C)(C)C#N)cc3)c2)cc1 and report it.
219
